pIC50: −log10 of the molar value.
Record type: pIC50 measurement. Applies to: rat Y5 receptor (Rattus norvegicus, UniProt Q63634)
ASSAY_READOUT: pIC50

Answered cases to consult:
{"columns": ["GIVEN_SMILES", "TEST_TARGET", "pIC50"],
 "data": [
  ["CCn1c2ccccc2c2cc(NC(=O)CN3CCC(Nc4ccccc4OC)CC3)ccc21", "rat Y5 receptor (Rattus norvegicus, UniProt Q63634)", 7.33],
  ["CCn1c2ccccc2c2cc(NC(=O)CN3CCC(Nc4cccc(O)c4)CC3)ccc21", "rat Y5 receptor (Rattus norvegicus, UniProt Q63634)", 7.46],
  ["CCn1c2ccccc2c2cc(NC(=O)CN3CCC(Nc4ccccc4O)CC3)ccc21", "rat Y5 receptor (Rattus norvegicus, UniProt Q63634)", 7.18]
]}

(a) O=C(CN1CCC(Nc2ccccc2)CC1)Nc1ccc2c(c1)-c1ccccc1C2=O
(b) O=C(CN1CCC(Nc2ccccc2O)CC1)Nc1ccc2c(c1)-c1ccccc1C2=O
(c) O=C(CN1CCC(Nc2cccc(O)c2)CC1)Nc1ccc2c(c1)-c1ccccc1C2=O
Hi! Can you put these in order of pIC50, lowest number first? # answer = labels listed in requested order a, b, c
